ASSAY_TEXT: Acute toxicity in mice
CONDITION_DETAILS: mouse, in vivo, ip
MEASUREMENT_KIND: LD50

Q. Data request, read-out LD50, for CC1=CC(C)C(OC2CCC(O)C(C)O2)c2cc(O)cc(c2O)NC(=O)C(C)C(=O)C(C)C1 (stereo not drawn) [Q-1047R-A]
A. > 500 mg/kg

This collection of values is drawn from patent US4912215A.
